Test system: Cavia porcellus
Protocol notes: Antiinflammatory activity in depilated albino guinea pig assessed as suppression of UV radiation-induced skin erythema compound administered via gavage measured 2 hrs after UV irradiation exposure
Assay type: functional
Conditions: light or radiation study, po, read-out: MED

Molecule: O=C(O)Cc1cccc2ccc(-c3ccccc3)cc12
Scale unit: mg/kg
Reported relation: =
minimal effective dose: 100

Molecule: Cc1ccc(Cl)c(Nc2ccccc2C(=O)O)c1Cl [MECLOFENAMIC ACID]
Scale unit: mg/kg
Reported relation: =
minimal effective dose: 0.4

Molecule: O=C(O)Cc1ccc2ccccc2c1-c1ccccc1
Scale unit: mg/kg
Reported relation: >
minimal effective dose: 200

Molecule: COc1ccc2c(c1)c(CC(=O)O)c(C)n2C(=O)c1ccc(Cl)cc1 [INDOMETHACIN]
Scale unit: mg/kg
Reported relation: =
minimal effective dose: 1.7
